These measurements were taken from patent US20240360228A1.

Biological target: T1, human chemokine (C-C motif) receptor 8 (CCR8) (human, UniProt P51685 1-355)
T1 construct: On human peripheral blood lymphocytes / PBMC (native) or on human CCR8 GFP-transfected Ba/F3 cells; also called hCCR8; human CCR8
T1 sequence (P51685 whole entry): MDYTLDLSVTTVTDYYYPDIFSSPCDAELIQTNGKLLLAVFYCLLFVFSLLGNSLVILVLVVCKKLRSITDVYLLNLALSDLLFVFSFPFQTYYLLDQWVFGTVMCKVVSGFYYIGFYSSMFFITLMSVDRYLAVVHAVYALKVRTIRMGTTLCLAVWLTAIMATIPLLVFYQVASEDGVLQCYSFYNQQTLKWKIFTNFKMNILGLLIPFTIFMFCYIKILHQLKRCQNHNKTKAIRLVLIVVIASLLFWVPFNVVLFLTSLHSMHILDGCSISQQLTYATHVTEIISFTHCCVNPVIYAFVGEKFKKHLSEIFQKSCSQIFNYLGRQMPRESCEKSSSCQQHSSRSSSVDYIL
Assay: flow cytometry blocking, PBMC CCR8+ CD4+ cells; competitor PE-AB3 (its MFI is read)
measured-attribute: MFI
Answer as a number with no unit attached.

response.value for AB3 (antibody, V domains shown, Hybridoma monoclonal; also called antibody 3; clone 3) VH: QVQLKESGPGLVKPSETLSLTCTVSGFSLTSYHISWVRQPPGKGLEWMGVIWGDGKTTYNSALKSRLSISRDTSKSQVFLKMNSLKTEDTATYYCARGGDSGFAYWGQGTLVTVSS VL: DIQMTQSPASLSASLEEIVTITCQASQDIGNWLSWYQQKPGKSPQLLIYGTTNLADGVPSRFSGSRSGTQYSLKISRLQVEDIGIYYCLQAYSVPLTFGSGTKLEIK (field: MFI) = 0

response.value for AB11 (antibody, V domains shown, Hybridoma monoclonal; also called antibody 11; clone 11) VH: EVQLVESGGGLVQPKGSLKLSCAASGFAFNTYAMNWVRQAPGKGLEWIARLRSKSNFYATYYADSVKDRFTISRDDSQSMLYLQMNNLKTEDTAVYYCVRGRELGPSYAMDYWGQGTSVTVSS VL: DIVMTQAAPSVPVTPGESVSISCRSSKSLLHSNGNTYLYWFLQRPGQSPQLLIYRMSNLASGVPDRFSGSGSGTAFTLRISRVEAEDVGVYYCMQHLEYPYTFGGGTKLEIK (field: MFI) = 1120

response.value for AB8 (antibody, V domains shown, Hybridoma monoclonal; also called antibody 8; clone 8) VH: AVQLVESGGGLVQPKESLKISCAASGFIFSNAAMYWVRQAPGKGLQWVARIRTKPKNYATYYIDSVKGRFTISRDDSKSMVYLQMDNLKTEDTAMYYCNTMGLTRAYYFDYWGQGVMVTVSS VL: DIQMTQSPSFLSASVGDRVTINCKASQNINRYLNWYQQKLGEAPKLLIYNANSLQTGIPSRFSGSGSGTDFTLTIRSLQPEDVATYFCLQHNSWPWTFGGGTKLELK (field: MFI) = 994

response.value for AB4 (antibody, V domains shown, Hybridoma monoclonal; also called antibody 4; clone 4) VH: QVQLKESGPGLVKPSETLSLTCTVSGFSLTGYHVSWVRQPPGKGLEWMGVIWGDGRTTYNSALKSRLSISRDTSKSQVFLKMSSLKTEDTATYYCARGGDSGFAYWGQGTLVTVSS VL: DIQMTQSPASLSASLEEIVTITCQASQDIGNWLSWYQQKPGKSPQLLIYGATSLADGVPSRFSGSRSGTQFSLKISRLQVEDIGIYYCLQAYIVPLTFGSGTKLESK (field: MFI) = 359
